Attribution: patent US20250152585A1

# TESTED TARGET: UniProtKB P09874
# EXPERIMENTAL PROTOCOL: PARP1 probe displacement HTRF assay
# CONDITION DETAILS: read-out: PARP1 HTRF; binned Kd, PARP1 probe displacement HTRF
pKd: −log10 of the molar value.
As shown below, each of these compounds has a reported pKd value.

Solved cases (3 shown):
| COMPOUND | pKd |
| --- | --- |
| CNC(=O)c1ccc(N2CCC(N3CCC(c4nc5c(c(=O)[nH]4)CCCC5)C3)CC2)cn1 (single isomer, unassigned) [Compound 155b] | > 8.00 |
| CCc1ccc(C2CCN(C3CCN(c4cnc(C(=O)NC)cc4C)CC3)C2)[nH]c1=O (single isomer, unassigned) [Compound 217a] | 6.00 to 7.00 |
| CNC(=O)c1ccc(N2CCC(N3CCC(c4nc5c(c(C(F)(F)F)cn5C)c(=O)[nH]4)C3)CC2)cn1 (racemic) [Compound 170rac] | > 8.00 |

pKd measured on CNC(=O)c1ccc(N2CCC(N3CCCC(F)(c4nc5ccccc5c(=O)[nH]4)C3)CC2)cn1 (single isomer, unassigned) [Compound 71a] = 5.00 to 6.00

pKd measured on CNC(=O)c1ccc(N2CCC(N3CCC(c4nc5c(C)cn(C)c5c(=O)[nH]4)C3)CC2)cn1 (racemic) [Compound 163rac] = > 8.00

pKd measured on CNC(=O)c1ccc(N2CCC(N3CCC(c4cc5ccc(F)cc5c(=O)[nH]4)C3)CC2)c(C)n1 (single isomer, unassigned) [Compound 196a] = > 8.00

pKd measured on CNC(=O)c1ccc(N2CCC(N3CCC(c4cc5cccnc5c(=O)[nH]4)C3)CC2)cn1 (racemic) [Compound 203rac] = > 8.00

----------
# TESTED TARGET: full length N-terminally FLAG-tagged PARP1 (Homo sapiens)
# EXPERIMENTAL PROTOCOL: PARP1 biochemical DELFIA assay (auto-PARylation)
# Parameters: recombinant full length human N-terminally FLAG-tagged PARP1
# CONDITION DETAILS: binned IC50, biochemical auto-PARylation assay
pIC50: −log10 of the molar value.
PROPERTY LABEL: pIC50

Solved cases (3 shown):
| COMPOUND | pIC50 |
| --- | --- |
| CNC(=O)c1ccc(N2CCC(N3CCC(c4cc5cccc(F)c5c(=O)[nH]4)C3)CC2)cc1F (single isomer, unassigned) [Compound 281b] | 6.00 to 7.00 |
| CCc1ccc(C2CCN(C3CCN(c4cnc(C(=O)NC)nc4C)CC3)C2)[nH]c1=O (single isomer, unassigned) [Compound 246a] | 6.00 to 7.00 |
| CNC(=O)c1ccc(N2CCC(N3CCC(c4cc5[nH]nc(C(F)(F)F)c5c(=O)[nH]4)C3)CC2)c(F)n1 (single isomer, unassigned) [Compound 280b] | > 8.00 |

Value (pIC50, full length N-terminally FLAG-tagged PARP1 (Homo sapiens)) for record CNC(=O)c1cc(C)c(N2CCC(N3CCC(c4nc5ccccc5c(=O)[nH]4)C3)CC2)c(C)n1 (single isomer, unassigned) [Compound 224b] = 6.00 to 7.00

----------
# TESTED TARGET: N-terminally FLAG-tagged PARP2 (amino acids 1-583) (Homo sapiens)
# Construct: N-terminally FLAG-tagged PARP2 (amino acids 1-583)
# Sequence (Q9UGN5 whole entry, the tested form may be a part): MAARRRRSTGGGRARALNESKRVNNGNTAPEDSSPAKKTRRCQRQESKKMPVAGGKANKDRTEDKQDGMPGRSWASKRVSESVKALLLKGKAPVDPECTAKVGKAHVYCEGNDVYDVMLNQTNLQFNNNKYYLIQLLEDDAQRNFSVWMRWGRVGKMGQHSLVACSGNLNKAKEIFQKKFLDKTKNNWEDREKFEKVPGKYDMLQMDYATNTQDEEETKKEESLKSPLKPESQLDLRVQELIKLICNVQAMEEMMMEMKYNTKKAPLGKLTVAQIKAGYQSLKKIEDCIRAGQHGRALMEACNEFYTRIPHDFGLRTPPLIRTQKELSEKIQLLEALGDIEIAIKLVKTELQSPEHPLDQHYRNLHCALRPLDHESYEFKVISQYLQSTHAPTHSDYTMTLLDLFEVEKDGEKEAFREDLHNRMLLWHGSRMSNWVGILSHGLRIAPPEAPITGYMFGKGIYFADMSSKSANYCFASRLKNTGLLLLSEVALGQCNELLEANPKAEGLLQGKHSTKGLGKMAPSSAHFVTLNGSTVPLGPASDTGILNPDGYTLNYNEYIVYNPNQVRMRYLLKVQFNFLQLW
# EXPERIMENTAL PROTOCOL: PARP2 probe displacement HTRF assay
# Assay type: binding
# CONDITION DETAILS: binned Kd, PARP2 probe displacement HTRF
pKd: −log10 of the molar value.
PROPERTY LABEL: pKd

pKd measured on CNC(=O)c1ccc(N2CCC(N3CCC(c4cc5c(F)cccc5c(=O)[nH]4)C3)CC2)cn1 (single isomer, unassigned) [Compound 172b] = 7.00 to 8.00

pKd measured on CNC(=O)c1ccc(N2CCC(N3CCC(c4nc5ccncc5c(=O)[nH]4)C3)CC2)cn1 (single isomer, unassigned) [Compound 81b] = < 5.00

pKd measured on CNC(=O)c1ccc(N2CCC(N3CCC(c4ccc(C(C)C)c(=O)[nH]4)C3)CC2)cn1 (racemic) [Compound 142rac] = 5.00 to 6.00

pKd measured on CNC(=O)c1ccc(N2CCC(N3CCCC(c4nc5onc(C(F)(F)F)c5c(=O)[nH]4)C3)CC2)cn1 (racemic) [Compound 191rac] = < 5.00

pKd measured on CNC(=O)c1ccc(N2CCC(N3CCCC(c4nc5c(F)cccc5c(=O)[nH]4)C3)CC2)cn1 (single isomer, unassigned) [Compound 114a] = < 5.00

----------
# TESTED TARGET: full length N-terminally FLAG-tagged PARP1 (Homo sapiens)
# EXPERIMENTAL PROTOCOL: PARP1 probe displacement HTRF assay
# CONDITION DETAILS: PARP1 HTRF, binned Kd, PARP1 probe displacement HTRF
As shown below, each of these compounds has a reported Kd value.

| COMPOUND | TESTED TARGET | Kd |
| --- | --- | --- |
| CNC(=O)c1ccc(N2CCC(n3cc(-c4nc5ccccc5c(=O)[nH]4)cn3)CC2)cn1 [Compound 17] | full length N-terminally FLAG-tagged PARP1 (Homo sapiens) | 10 to 100 nM |
| CNC(=O)c1ccc(N2CCC(C(=O)N3CCC(c4nc5ccccc5c(=O)[nH]4)CC3)CC2)cn1 [Compound 36] | full length N-terminally FLAG-tagged PARP1 (Homo sapiens) | < 10 nM |

Kd measured on CNC(=O)c1ccc(N2CCC(CN3CCC(c4nc5ccccc5c(=O)[nH]4)CC3)CC2)cn1 [Compound 8] = < 10 nM

Kd measured on CNC(=O)c1ccc(N2CCC(N3CCCC(c4nc5ccccc5c(=O)[nH]4)C3)CC2)cn1 (single isomer, unassigned) [Compound 6a] = < 10 nM

Kd measured on CNC(=O)c1ccc(N2CCC(N3CCC(c4nc5c(c(=O)[nH]4)CCCN5C)C3)CC2)cn1 (single isomer, unassigned) [Compound 208a] = 10 to 100 nM

Kd measured on CNC(=O)c1ccc(N2CCC(N3CCC(c4nc5[nH]nc(C(F)(F)F)c5c(=O)[nH]4)C3)CC2)cn1 (single isomer, unassigned) [Compound 162b] = < 10 nM

Kd measured on CNC(=O)c1ccc(N2CC(CN3CCC(c4nc5ccccc5c(=O)[nH]4)CC3)C2)cn1 [Compound 45] = < 10 nM

Kd measured on CNC(=O)c1ccc(N2CCC(N3CCC(Cc4nc5ccccc5c(=O)[nH]4)CC3)CC2)cn1 [Compound 54] = < 10 nM

Kd measured on CNC(=O)c1ccc(OCCCN2CCC(c3nc4ccccc4c(=O)[nH]3)CC2)cn1 [Compound 2] = < 10 nM

Kd measured on CNC(=O)c1ccc(N2CCC(N3CC4(c5nc6ccccc6c(=O)[nH]5)CC3C4)CC2)cn1 [Compound 192] = < 10 nM

----------
# TESTED TARGET: full length N-terminally FLAG-tagged PARP1 (Homo sapiens, UniProt P09874)
# Sequence (P09874 whole entry): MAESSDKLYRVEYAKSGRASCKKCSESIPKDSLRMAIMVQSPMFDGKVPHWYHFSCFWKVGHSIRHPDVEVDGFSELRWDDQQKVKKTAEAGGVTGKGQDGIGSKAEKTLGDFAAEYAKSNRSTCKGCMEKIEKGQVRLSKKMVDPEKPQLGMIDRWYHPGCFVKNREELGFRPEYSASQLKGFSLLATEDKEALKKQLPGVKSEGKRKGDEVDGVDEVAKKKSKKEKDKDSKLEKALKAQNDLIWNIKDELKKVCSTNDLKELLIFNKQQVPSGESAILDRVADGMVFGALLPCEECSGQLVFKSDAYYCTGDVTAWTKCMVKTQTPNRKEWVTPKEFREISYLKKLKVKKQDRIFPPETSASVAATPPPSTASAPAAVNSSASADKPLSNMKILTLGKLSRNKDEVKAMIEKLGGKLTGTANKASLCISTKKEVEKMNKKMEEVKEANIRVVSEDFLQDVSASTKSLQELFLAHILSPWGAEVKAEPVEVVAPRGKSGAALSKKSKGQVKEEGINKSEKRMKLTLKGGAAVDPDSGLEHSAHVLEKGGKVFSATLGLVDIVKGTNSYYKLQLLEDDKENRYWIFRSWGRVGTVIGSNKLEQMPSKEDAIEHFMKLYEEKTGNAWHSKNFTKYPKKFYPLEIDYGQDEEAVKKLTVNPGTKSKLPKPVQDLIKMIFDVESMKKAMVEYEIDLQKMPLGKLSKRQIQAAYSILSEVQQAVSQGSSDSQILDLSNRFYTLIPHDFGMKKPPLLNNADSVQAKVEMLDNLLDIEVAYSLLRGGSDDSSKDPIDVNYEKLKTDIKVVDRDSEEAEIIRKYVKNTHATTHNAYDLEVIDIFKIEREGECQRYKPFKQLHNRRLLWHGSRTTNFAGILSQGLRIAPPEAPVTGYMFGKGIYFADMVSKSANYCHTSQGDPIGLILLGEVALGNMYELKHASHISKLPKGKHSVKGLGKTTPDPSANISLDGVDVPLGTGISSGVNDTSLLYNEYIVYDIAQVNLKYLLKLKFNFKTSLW
# EXPERIMENTAL PROTOCOL: PARP1 biochemical DELFIA assay (auto-PARylation)
# Design: recombinant full length human N-terminally FLAG-tagged PARP1
# CONDITION DETAILS: binned IC50, PARP1 biochemical DELFIA assay
PROPERTY LABEL: IC50

Solved cases (3 shown):
| COMPOUND | IC50 |
| --- | --- |
| CNC(=O)c1ccc(N2CCC(N3CCC(c4nc5c(F)cccc5c(=O)[nH]4)C3)CC2)cn1 (single isomer, unassigned) [Compound 121b] | < 10 nM |
| O=C(NCCF)c1ccc(N2CCC(N3CCCC(c4nc5ccccc5c(=O)[nH]4)C3)CC2)cn1 (single isomer, unassigned) [Compound 110b] | 100 to 1000 nM |
| N#Cc1ccc(N2CCC(N3CCC(c4nc5ccccc5c(=O)[nH]4)C3)CC2)cc1 (single isomer, unassigned) [Compound 34b] | < 10 nM |

IC50 measured on CCc1ccc(C2CCN(C3CCN(c4ccc(C(=O)NCCF)nc4)CC3)C2)[nH]c1=O (single isomer, unassigned) [Compound 165a] = < 10 nM

----------
# TESTED TARGET: N-terminally FLAG-tagged PARP2 (amino acids 1-583) (Homo sapiens)
# Construct: N-terminally FLAG-tagged PARP2 (amino acids 1-583)
# EXPERIMENTAL PROTOCOL: PARP2 probe displacement HTRF assay
# Format: binding
# CONDITION DETAILS: binned Kd, PARP2 probe displacement HTRF
# Method: Data analysis was performed identical as for PARP1.
PROPERTY LABEL: Kd

| COMPOUND | TESTED TARGET | Kd |
| --- | --- | --- |
| CNC(=O)c1ccc(N2CCC(N3CCC(c4cc5[nH]nc(C(F)(F)F)c5c(=O)[nH]4)C3)CC2)cn1 (single isomer, unassigned) [Compound 194a] | N-terminally FLAG-tagged PARP2 (amino acids 1-583) (Homo sapiens) | 1 to 10 µM |

Kd measured on CNC(=O)c1ccc(N2CC(N3CCCC(c4nc5ccccc5c(=O)[nH]4)C3)C2)cn1 (single isomer, unassigned) [Compound 23b] = > 10 µM

Kd measured on CCc1ccc(C2CCN(C3CCN(c4ccc(C(=O)NCCOC)nc4)CC3)C2)[nH]c1=O (racemic) = 1 to 10 µM

Kd measured on CNC(=O)c1ccc(N2CCC(N3CCC(c4ccc(CC(F)(F)F)c(=O)[nH]4)C3)CC2)cn1 (single isomer, unassigned) [Compound 188b] = 0.1 to 1 µM

Kd measured on CNC(=O)c1ccc(N2CCC(N3CCC(c4nc5ccc(Cl)cc5c(=O)[nH]4)C3)CC2)cn1 (single isomer, unassigned) [Compound 68b] = 0.1 to 1 µM

Kd measured on CNC(=O)c1ccc(N2CCC(CN3CCC(c4nc5ccccc5c(=O)[nH]4)CC3)CC2)cn1 = > 10 µM
